Tested on: HOP-92 NSCLC
TEST DETAILS: NCI-60 one-dose screen, 48 h (100 = growth as untreated, 0 = no growth, -100 = all killed)
MEASUREMENT PARAMETERS: 10 µM unless noted
Compounds without any hit were thinned out: in the full panel of roughly 83,000, 20% have a hit.
MEASUREMENT TYPE: growth (%)
// return numeric value only (unit: %, not printed)

Known growth results, listed for orientation:
{"COMPOUND": "O=C(/C(=C\\c1c(-c2ccccc2)[nH]c2ccccc12)S(=O)(=O)c1ccccc1)c1ccccc1", "EXPERIMENTAL VALUE": -4.34}
{"COMPOUND": "O=C(Nc1ccc2ncnc(Nc3ccc(F)c(Cl)c3)c2c1)c1ccccc1", "EXPERIMENTAL VALUE": 97.2}
{"COMPOUND": "CCOC(=O)NC(Cc1ccccc1)c1ccccc1 (stereo not drawn)", "EXPERIMENTAL VALUE": 87.4}
{"COMPOUND": "C=C1C(=O)O[C@H]2[C@H]1CC/C(COC(=O)n1ccnc1)=C\\CC[C@@]1(C)O[C@@H]21", "EXPERIMENTAL VALUE": 94.4}
{"COMPOUND": "O=C(CCCC(=O)Nc1ccc(-n2nnc3cc(Cl)c(Cl)cc32)cc1)Nc1ccc(-n2nnc3cc(Cl)c(Cl)cc32)cc1", "EXPERIMENTAL VALUE": 77.6}

# input compound: C[C@H]1[C@H](C)CC[C@]2(C(=O)OCCOCCOCC[P+](c3ccccc3)(c3ccccc3)c3ccccc3)CC[C@]3(C)C(=CC[C@@H]4[C@@]5(C)CC[C@H](OC(=O)C(Cl)Cl)C(C)(C)[C@@H]5CC[C@]43C)[C@H]12 ; wanted: its growth -26.6

# input compound: CC[C@]12C=CCN3CC[C@@]4(c5cc(NC(=O)CCC(=O)O[C@H]6CC[C@H]7[C@@H]8CC[C@H]9CC(=O)CC[C@]9(C)[C@H]8CC[C@]67C)c(OC)cc5N(C)[C@H]4[C@@](O)(C(=O)OC)[C@@H]1OC(C)=O)[C@@H]32 ; wanted: its growth 52.4

# input compound: N#CCNc1ccc(C(=O)O)cc1 ; wanted: its growth 94

----------
Test system: 786-0 renal
TEST DETAILS: NCI-60 one-dose screen, 48 h (100 = growth as untreated, 0 = no growth, -100 = all killed)
MEASUREMENT PARAMETERS: 10 µM unless noted
About 83,000 compounds went through this panel and 20% of them were active in at least one assay; those are over-represented in the sample as a whole. Active and inactive are the calls of the source. How the source made its calls: active means growth percent below 10; inactive means the rest.
MEASUREMENT TYPE: growth

Known growth results, listed for orientation:
{"COMPOUND": "O=c1nc(-c2ccccc2)c2cc(-c3ccc(N4CCCC4)nc3)ccc2[nH]1", "growth": "69.5% (inactive)"}
{"COMPOUND": "NC(=O)C(O)(c1ccccc1)c1ccccc1", "growth": "102% (inactive)"}
{"COMPOUND": "CN(C)C(CNc1oc(-c2cccc3ccccc23)nc1C#N)c1ccco1 (stereo not drawn)", "growth": "90.1% (inactive)"}
{"COMPOUND": "COc1cc(NC(=O)COc2cc(C)nc3ccc(OC)cc23)cc(OC)c1", "growth": "97.1% (inactive)"}
{"COMPOUND": "Cc1cc(Nc2nc(SCc3ccc(C(=O)Nc4ccc(F)cc4N)cc3)nn3cccc23)n[nH]1", "growth": "44.1% (inactive)"}
{"COMPOUND": "COc1ccc(-c2cc(-c3nnc(SCC(=O)Nc4ccc(/C(C)=N\\O)cc4)n3-c3ccccc3)c3cc(OC)ccc3n2)cc1", "growth": "83.5% (inactive)"}

# input compound: COc1cccc(NC(=O)Nc2ccc(Oc3ncnc4[nH]c(C)c(C)c34)cc2)c1 ; wanted: its growth 109% (inactive)

# input compound: O=CN1N=C(c2ccc(Cl)cc2)CC1c1cccc(Nc2ccnc3cc(C(F)(F)F)ccc23)c1 (stereo not drawn) ; wanted: its growth 81.5% (inactive)

# input compound: COc1cc(C2=NN(C(C)=O)C(c3cccc(Nc4ccnc5cc(C(F)(F)F)ccc45)c3)C2)cc(OC)c1OC (stereo not drawn) ; wanted: its growth 58.8% (inactive)

# input compound: Cn1c2c(c3ccc(-c4ccn[nH]4)cc3c1=O)C(=O)c1ccccc1-2 ; wanted: its growth 12.3% (inactive)

# input compound: C=C1C(=O)O[C@H]2[C@H]1CC/C(COC(=O)NCC(=O)Nc1ccc(OC)c(C(N)=O)c1O)=C\CC[C@@]1(C)O[C@@H]21 ; wanted: its growth 58.7% (inactive)

# input compound: COc1ccc2oc(=O)cc(-c3c(C#N)c(N)n4nc(N)c(C#N)c4c3C#N)c2c1 ; wanted: its growth 103% (inactive)

----------
Recorded growth for the following molecules
Tested on: TK-10 renal
TEST DETAILS: NCI-60 one-dose screen, 48 h (100 = growth as untreated, 0 = no growth, -100 = all killed)
MEASUREMENT PARAMETERS: 10 µM unless noted
Compounds without any hit were thinned out: in the full panel of roughly 83,000, 20% have a hit.
// return numeric value only (unit: %, not printed)

{"MOLECULE": "N#Cc1ccc(C2C3=C(CCCC3=O)OC3=C2C(=O)c2ccccc2C3=O)cc1 (stereo not drawn)", "UNIT TAG": "%", "growth": 99.7}
{"MOLECULE": "N#CC1C(c2ccc(Cl)cc2)=Nc2c(c(-c3ccccc3)nn2-c2ccccc2)C12C(=O)Nc1ccc(Cl)cc12 (stereo not drawn)", "UNIT TAG": "%", "growth": 47.8}
{"MOLECULE": "CC(C)(C)c1ccc2oc(=O)n(SC(Cl)(Cl)Cl)c2c1", "UNIT TAG": "%", "growth": 92.4}
{"MOLECULE": "O=C1NN(c2ccccc2)C(c2ccc(Cl)cc2)N2CCC[C@H]12 (stereo partly drawn)", "UNIT TAG": "%", "growth": 111}
{"MOLECULE": "O=c1[nH]c2ccccc2cc1-c1nc2ccncc2[nH]1", "UNIT TAG": "%", "growth": 73.8}

# input molecule: COc1ccc([C@H]2[C@@H](F)C(=O)N2c2cc(OC)c(OC)c(OC)c2)cc1F ; wanted: its growth 64.4

# input molecule: O=C(CN1N=C(c2ccc(F)cc2)CCC1=O)Nc1nc2ccccc2s1 ; wanted: its growth 95.3

# input molecule: C=C1C(=O)O[C@H]2[C@H]1CC/C(C=Nc1c(N)cc(C(F)(F)F)cc1Br)=C\CC[C@@]1(C)O[C@@H]21 ; wanted: its growth -27.3

# input molecule: COC(=O)c1ccc(NC(=O)CSc2nc(-c3ccc(F)cc3)nc3ccccc23)cc1 ; wanted: its growth 113

# input molecule: COc1ccc2cc(/C=C3\N=C(c4cc(OC)c(OC)c(OC)c4)OC3=O)c(OC)nc2c1 ; wanted: its growth 106

# input molecule: CCCCc1ccc(N=Nc2ccc(OCC[N+](C)(C)C)cc2)cc1 ; wanted: its growth 31.3

# input molecule: COc1cc(/C=C/C(=O)/C=C/c2cc3ccc(Cl)cc3n(Cc3ccccc3)c2=O)ccc1O ; wanted: its growth 13.8

----------
Test system: EKVX NSCLC
TEST DETAILS: NCI-60 one-dose screen, 48 h (100 = growth as untreated, 0 = no growth, -100 = all killed)
MEASUREMENT PARAMETERS: 10 µM unless noted
About 83,000 compounds went through this panel and 20% of them were active in at least one assay; those are over-represented in the sample as a whole. The source made the active and inactive calls. How the source made its calls: active means growth percent below 10; inactive means the rest.
Recorded growth for the following compounds

Known growth results, listed for orientation:
{"COMPOUND": "COc1ccc(/C=C/C(=O)Nc2ncnc3nc[nH]c23)cc1", "growth": "100% (inactive)"}
{"COMPOUND": "Cc1cc(NC(=O)CNc2nc(Oc3ccc(F)cc3)nc(-c3ccc(F)cc3)n2)ccc1Cl", "growth": "98.6% (inactive)"}
{"COMPOUND": "C=C(C)[C@@H]1CC[C@]2(C(=O)O)CC[C@]3(C)[C@H](CC[C@@H]4[C@@]5(C)C[C@@H](CC#Cc6ccccc6)C(=O)C(C)(C)[C@@H]5CC[C@]43C)[C@@H]12", "growth": "28.6% (inactive)"}
{"COMPOUND": "C=C1C(=O)O[C@H]2[C@H]1CC/C(COC(=O)/C=C/c1cccnc1)=C\\CC[C@@]1(C)O[C@@H]21", "growth": "43.4% (inactive)"}
{"COMPOUND": "COc1cc(/C=C/C(=O)/C=C/c2cc3ccc(Cl)cc3[nH]c2=O)ccc1O", "growth": "94.4% (inactive)"}
{"COMPOUND": "Cc1nccc2c3ccc(OCc4cn(-c5ccc(Cl)cc5)nn4)cc3n(CC(C)C)c12", "growth": "40.8% (inactive)"}
{"COMPOUND": "COC1=CC2C=C(C3N(c4ccccc4)NC(=O)[C@@H]4CCCN34)C(=O)NC2C=C1 (some centres undefined)", "growth": "96.7% (inactive)"}
{"COMPOUND": "c1ccc(-c2cn3ccnc3c(-c3ccc4c(c3)ncn4C3CCCCC3)n2)cc1", "growth": "97.5% (inactive)"}

# input compound: O=c1[nH]c2ccccc2cc1-c1nc2ccncc2[nH]1 ; wanted: its growth 81.9% (inactive)

# input compound: COc1ccc([C@H]2[C@@H](F)C(=O)N2c2cc(OC)c(OC)c(OC)c2)cc1F ; wanted: its growth 72.2% (inactive)

# input compound: CC1CCN(CCCCCOc2ccc3oc4ccccc4c(=O)c3c2)CC1 ; wanted: its growth 89% (inactive)

# input compound: N#Cc1c(-c2ccc(F)cc2)nc(N/N=C/c2cccc(O)c2)nc1N1CCOCC1 ; wanted: its growth 86.9% (inactive)

# input compound: Cc1cc(Nc2nc(SCc3ccc(C(=O)Nc4ccc(F)cc4N)cc3)nn3cccc23)n[nH]1 ; wanted: its growth 31% (inactive)

# input compound: Nc1c(C(=O)Nc2ccccc2Cl)sc2nc3c(cc12)CN(Cc1ccccc1)CC3 ; wanted: its growth 93% (inactive)

# input compound: COc1cc(-c2cn(-c3ccc(Cl)c(Cl)c3)c(=O)[nH]2)cc(OC)c1OC ; wanted: its growth 95.3% (inactive)

# input compound: CSc1cccc(NC(=O)Nc2nc3c(C)cccc3s2)c1 ; wanted: its growth 80.2% (inactive)

# input compound: O=C1Nc2ccc(Cl)cc2/C1=N/c1nc(-c2ccc(F)cc2)cs1 ; wanted: its growth 44.5% (inactive)

# input compound: C#CCOC(=O)[C@]1(C)CCC[C@]2(C)[C@H]3C[C@H]4C(C(C)C)=C[C@]3(CC[C@H]21)[C@@H]1C(=O)CCC(=O)[C@@H]14 ; wanted: its growth 76.1% (inactive)

# input compound: O=c1cc(/C=N\Nc2nc(-c3ccc(Cl)cc3Cl)cs2)c2cc(Cl)ccc2o1 ; wanted: its growth 79.3% (inactive)
